# experimentNotes: qHTS assay to identify small molecule HDAC inhibitors - cell viability counter screen (AID 1259365); further: on the % scale 0 is the no-effect control and ±100 the full control effect; nearly all actives have a fitted effect of over 50% in size
# measurementConditions: HCT-116 viability, CellTiter-Glo ATP luminescence, 2 h; series mostly up to 92.4 µM
The source made the active and inactive calls. The call rests on the fitted dose curve; in most records, active means well fitted cell-killing curve with a large enough effect in the repeat runs; inconclusive means weak or mixed curves, or effect the other way; inactive means flat fitted curve, though single readings scatter. Positions of bridges follow the written chain, without caps; N, C: chain ends. Non-standard residues stand in square brackets, D forms with d. Residues, ends and D or L forms follow the SMILES beside them. hArg = N=C(N)NCCCC[C@H](N)C(=O)O; Mpa = O=C(O)CCS
propertyMeasured: activity change, negative = cytotoxicity

molecule	measured
NC(=O)[C@@H]1CSSCCC(=O)N[C@@H](CCCCN=C(N)N)C(=O)NCC(=O)N[C@@H](CC(=O)O)C(=O)N[C@@H](Cc2c[nH]c3ccccc23)C(=O)N2CCC[C@H]2C(=O)N1 ([Mpa][hArg]GDWPC-NH2; disulfide 1-7)	inactive
O=[N+]([O-])c1c(Cl)cc(Cl)cc1Cl	inactive
CCCC(CC)c1ccccc1 (stereo not drawn)	inactive
COc1cc2c(cc1OC)C(=O)C(CC1CCN(Cc3ccccc3)CC1)C2 (stereo not drawn)	inactive
CCCCCC/C=C/C(=O)OC	inactive

molecule `Cc1cc(-c2ccccc2)nnc1NCCN1CCOCC1` , activity change, negative = cytotoxicity observed: inactive

The molecule listed as `c1ccc2c(CC3=NCCN3)cccc2c1` shows activity change, negative = cytotoxicity equal to inactive

Form: molecule = `CCCCOC(=O)[C@H](C)O` ; activity change, negative = cytotoxicity = inactive

`COc1c2occc2c(OC)c2c(=O)cc(C)oc12` has a reported activity change, negative = cytotoxicity of inactive

Value of measured activity change, negative = cytotoxicity for the entry `CC1(C)Cc2cccc(N)c2O1` : inactive

Note to self: activity change, negative = cytotoxicity recorded for `CC/C=C\CCOC(=O)c1ccccc1O` was inactive

Given item `CC(=O)O[C@H]1C[C@@H]2CC[C@@]1(C)C2(C)C` , the value recorded as its activity change, negative = cytotoxicity is inactive

Record CC1=C(O)C(=O)C(C)O1 (stereo not drawn) . Reported activity change, negative = cytotoxicity: inactive

====

# experimentNotes: Caspase-3/7 induction in CHO-K1 cells by small molecules, qHTS assay (AID 1346980); further: on the % scale 0 is the no-effect control and ±100 the full control effect; nearly all actives have a fitted effect of over 15% in size
# measurementConditions: CHO-K1 caspase-3/7 induction, Caspase-Glo luminescence, 17 h; series mostly up to 92.4 µM
Active and inactive are the calls of the source. Calls follow the shape of the dose curve; as a rule, active = well fitted activation curve with a large enough effect in the repeat runs; inconclusive = weak or mixed curves; inactive = flat fitted curve, though single readings scatter.
propertyMeasured: caspase-3/7 activation

                                   compound  measured
0            CC(O)CC(C)O (stereo not drawn)  inactive
1  CN1CCOC(c2ccccc2)c2ccccc2C1 (stereo not drawn)  inactive
2  C=C(C)C1CC=C(C)C(=O)C1 (stereo not drawn)  inactive
3            CC(=O)C(C)O (stereo not drawn)  inactive
4  CN(C)CCCO[C@@H]1[C@H]2OC(C)(C)O[C@H]2O[C@@H]1C(O)CO (stereo partly drawn)  inactive
5                            CC(C)Nc1ccccc1  inactive
6                              COS(=O)(=O)O  inactive
7  CCC[C@@H]1C[C@@H](C(=O)N[C@@H]([C@H]2O[C@H](SC)[C@H](O)[C@@H](O)[C@H]2O)[C@@H](C)O)N(C)C1  inactive

For reference, reported caspase-3/7 activation for `CC(C)CO` stands at inactive

The recorded caspase-3/7 activation for entry OCC(O)CN1CCN(c2ccccc2)CC1 (stereo not drawn) equals inactive

CCC(C)C(C)=O (stereo not drawn) has a reported caspase-3/7 activation of inactive

Reported caspase-3/7 activation of `CC1(C)[C@H]2CC[C@](C)(C2)[C@H]1O` : inactive

For this compound ( `CC(=O)CC(=O)OC(C)(C)C` ), measured caspase-3/7 activation is inactive

caspase-3/7 activation in this record for `[O]=[Mo](=[O])=[O]` : 0.334% [at 19 µM] (inactive)

Note to self: caspase-3/7 activation recorded for `CC(C)OC(=O)CCC(=O)OC(C)C` was inactive

The value of caspase-3/7 activation measured for the compound `C=Cc1ccc(C(C)(C)C)cc1` turned out to be inactive

caspase-3/7 activation in this record for `COC(=O)c1cccc(Cl)c1` : inactive

The compound listed as `O=C1NC(c2ccccc2)(c2ccccc2)C(=O)N1COP(=O)(O)O` shows caspase-3/7 activation equal to inactive

====

# experimentNotes: qHTS assay to identify small molecule antagonists of the glucocorticoid receptor (GR) signaling pathway - cell viability counter screen (AID 720693); further: on the % scale 0 is the no-effect control and ±100 the full control effect; nearly all actives have a fitted effect of over 55% in size
# measurementConditions: GR-bla HeLa viability, CellTiter-Glo luminescence, 18 h, with 5 nM dexamethasone present; series mostly up to 58.5 µM
Records with an inconclusive call do not appear. The source made the active and inactive calls. Calls follow the shape of the dose curve; as a rule, active = well fitted cell-killing curve with a large enough effect in the repeat runs; inconclusive = weak or mixed curves, or effect the other way; inactive = no such curve, though single readings can be large or run the other way.
propertyMeasured: viability change, negative = cytotoxic

The examples below pair each entry with its known result.
>>> print(df.to_string())
                                   compound                        propertymeasured  measured
0  CC1=C(O)C(=O)C(C)O1 (configuration not stated)  viability change, negative = cytotoxic  inactive
1             Cc1ccc2c(c1)C(=O)c1ccccc1C2=O  viability change, negative = cytotoxic  inactive
2  CC1(C)CC(OC(=O)CCCCCCCCC(=O)OC2CC(C)(C)NC(C)(C)C2)CC(C)(C)N1  viability change, negative = cytotoxic  inactive
3                         CCCCCCCCCCOC(C)=O  viability change, negative = cytotoxic  inactive
4                    CCNC(=O)NCc1cccc(Cl)c1  viability change, negative = cytotoxic  inactive

compound CN(C)CCCO[C@@H]1[C@H]2OC(C)(C)O[C@H]2O[C@@H]1C(O)CO (some centres not stated) , viability change, negative = cytotoxic observed: inactive

Sample `Cc1cc(C)c(C(=O)O)c(C)c1` ; viability change, negative = cytotoxic observed: inactive

====

# targetUnderTest: Cytochrome P450 1A2 (Homo sapiens) (UniProt P05177)
# Sequence (P05177 whole entry, looked up): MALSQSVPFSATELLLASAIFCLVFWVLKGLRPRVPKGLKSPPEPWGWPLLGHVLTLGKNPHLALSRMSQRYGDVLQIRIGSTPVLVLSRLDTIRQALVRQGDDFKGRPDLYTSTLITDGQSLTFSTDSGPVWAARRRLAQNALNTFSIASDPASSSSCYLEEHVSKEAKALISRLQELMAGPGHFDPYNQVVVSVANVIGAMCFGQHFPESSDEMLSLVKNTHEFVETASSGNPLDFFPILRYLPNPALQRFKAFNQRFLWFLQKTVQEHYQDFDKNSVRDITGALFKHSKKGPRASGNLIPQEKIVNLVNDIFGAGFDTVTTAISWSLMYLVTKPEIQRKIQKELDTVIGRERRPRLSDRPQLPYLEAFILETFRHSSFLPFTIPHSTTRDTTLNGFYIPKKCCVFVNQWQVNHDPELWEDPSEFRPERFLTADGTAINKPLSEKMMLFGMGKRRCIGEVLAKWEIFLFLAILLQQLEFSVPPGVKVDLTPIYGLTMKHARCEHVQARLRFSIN
# experimentNotes: Cytochrome P450 Family 1 Subfamily A Member 2 (CYP1A2) small molecule antagonists: luciferase reporter qHTS assay (AID 1671199); further: nearly all actives have a fitted effect of over 50% in size
# measurementConditions: P450-Glo CYP1A2 enzyme, luciferin luminescence, 1 h; series mostly up to 115 µM
Results filed as inconclusive are left out. Calls of active or inactive are those of the source. Calls come from the whole dose curve; as a rule, active = well fitted inhibition curve with a large enough effect in the repeat runs; inconclusive = weak or mixed curves; inactive = no such curve, though single readings can be large or run the other way.
Please reply with one of these outcomes: active, inactive

// known answers, use as guide
>>> print(df.to_string())
                                   compound  labelclass
0                    Cc1ccc(N)cc1S(=O)(=O)O      active
1                     CC(=O)CC(=O)OC(C)(C)C    inactive
2  CC1CCc2c(N3CCC(O)CC3)c(F)cc3c(=O)c(C(=O)O)cn1c23 (stereo not drawn)    inactive

Q. Just curious, what result did `Cc1ccnc(N)c1` get here?
A. inactive

Q. Hello, I am checking results. What call was entered for `CC(C)OC(=O)CCC(=O)OC(C)C` ?
A. inactive

Q. For CCOc1ccccc1OCC1CNCCO1 (stereo not drawn) , what call appears in the results of this test?
A. active

Q. Recorded test outcome, item `CC1(C)[C@H]2CC[C@](C)(C2)[C@H]1O`
A. inactive

Q. Just curious, what result did `CCN(CC)CCN` get here?
A. inactive

====

# targetUnderTest: Cytochrome P450 2C9 (Homo sapiens) (UniProt P11712)
# Sequence (P11712 whole entry, looked up): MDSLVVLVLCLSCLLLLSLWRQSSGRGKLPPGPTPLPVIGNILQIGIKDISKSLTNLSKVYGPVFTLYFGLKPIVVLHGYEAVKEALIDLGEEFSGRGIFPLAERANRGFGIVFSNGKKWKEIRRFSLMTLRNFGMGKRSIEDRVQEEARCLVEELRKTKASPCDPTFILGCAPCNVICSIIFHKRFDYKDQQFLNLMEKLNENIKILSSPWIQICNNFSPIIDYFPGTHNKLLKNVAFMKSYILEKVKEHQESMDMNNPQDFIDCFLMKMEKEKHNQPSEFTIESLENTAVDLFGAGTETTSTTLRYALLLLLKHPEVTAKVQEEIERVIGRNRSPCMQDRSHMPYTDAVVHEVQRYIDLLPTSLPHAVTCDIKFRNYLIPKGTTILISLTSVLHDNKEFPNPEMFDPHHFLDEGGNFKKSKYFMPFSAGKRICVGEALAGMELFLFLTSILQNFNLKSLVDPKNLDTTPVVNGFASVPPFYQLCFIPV
# experimentNotes: Cytochrome P450 Family 2 Subfamily C Member 9 (CYP2C9) small molecule antagonists: luciferase reporter qHTS assay (AID 1671198); further: nearly all actives have a fitted effect of over 50% in size
# measurementConditions: P450-Glo CYP2C9 enzyme assay, luciferin luminescence; series mostly up to 115 µM
Results filed as inconclusive are left out. The source made the active and inactive calls. Calls follow the shape of the dose curve; as a rule, active = well fitted inhibition curve with a large enough effect in the repeat runs; inconclusive = weak or mixed curves; inactive = no such curve, though single readings can be large or run the other way.
In this exercise, the only acceptable responses are y (active), n (inactive)

>>> df
                                   molecule  labelclass
0                                   NCCOCCN           n
1                           COc1ccc(CCO)cc1           y
2                   Cc1cc(C)c(C(=O)O)c(C)c1           n
3                        COC(=O)/C=C\C(=O)O           n
4  C=C(C)C1CC=C(C)C(=O)C1 (stereo unspecified)           n

Q. Given CCOC(=O)CC1(C)OCC(C)O1 (stereo unspecified) , state the outcome it received in this test.
A. n

Q. Can you look up the reported call for `C=C(C)[C@@H]1CC=C(C)CC1` for me?
A. n

Q. Check the results log: what was the call for `C=Cc1ccc(C(C)(C)C)cc1` ?
A. n

Q. Tell me the recorded outcome of this test for CC(C)C1OCCN1CCOC(=O)NCCCCCCNC(=O)OCCN1CCOC1C(C)C (stereo unspecified) .
A. n

Q. // param item: `Cc1c(C(=O)c2c[nH]n(C)c2=O)ccc(S(C)(=O)=O)c1C1=NOCC1` ; yields the recorded call
A. y

Q. Dear colleague, could you share the recorded outcome for CC(O)CC(C)O (stereo unspecified) when you have a moment?
A. n

Q. So what was the verdict on `CC(C)[C@H]1CC[C@H](C)C[C@@H]1O` in this test?
A. n

Q. Query: recorded result category for `CCCCCCCCCCCCCCCCCC#N` in this test
A. n

Q. What outcome does the record of this test show for `COc1nc(N)nc2nc[nH]c12` ?
A. n

Q. Test call, this molecule: `COC(=O)CCCCC(=O)O`
A. n

Q. // outcome(item) with item = Cc1ncc([N+](=O)[O-])n1CC(C)O (stereo unspecified)
A. n

Q. Could you check what this test reported for `C=C(C)c1cccc(C(C)(C)N=C=O)c1` ?
A. y

Q. What call does the record list for `CN(C)CCCCl` ?
A. n

Q. What was the test verdict on CC1OCCC1=O (stereo unspecified) ?
A. n

Q. What is the recorded call for this molecule in the test? `CC(C)Cn1cnc2c1c(=O)n(C)c(=O)n2C`
A. n

Q. Hey, what did the test say about CCC(C)C(=O)OCCc1ccccc1 (stereo unspecified) ?
A. n

The measurements presented in this section are drawn from PubChem BioAssay (Tox21).
